- assayed_system: GDP-bound KRAS wild-type protein (Homo sapiens, UniProt P01116)
- Sequence (P01116 whole entry): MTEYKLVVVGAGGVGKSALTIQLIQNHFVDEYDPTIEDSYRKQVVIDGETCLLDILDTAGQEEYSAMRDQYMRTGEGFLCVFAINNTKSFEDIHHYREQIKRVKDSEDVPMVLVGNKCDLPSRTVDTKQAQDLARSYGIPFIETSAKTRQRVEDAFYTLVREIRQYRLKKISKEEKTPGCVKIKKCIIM
- assay_remarks: Binding to KRAS by surface plasmon resonance (SPR), Single Cycle Kinetics
- measurement_context: SPR, Single Cycle Kinetics, 1:1 binding model; GDP-bound KRAS wild-type protein; read-out: KRAS KD
# reported Kd; entries follow
Express the result in nM but write the number alone.

item_smiles	Kd / nM
CCO[C@@H]1C[C@H]2C(=O)NC3(CCC3)C(=O)N(C)[C@@H](C3CCCC3)C(=O)N(C)[C@H](C(=O)N3CCCC3)CC(=O)N(C)[C@@H](CC3CCCC3)C(=O)N[C@@H]([C@@H](C)CC)C(=O)N(C)CC(=O)N(C)[C@H]3C/C=C\CCN(C3=O)[C@@H](Cc3ccc(F)cc3)C(=O)N(C)CC(=O)N[C@@H](CCc3ccc4sccc4c3)C(=O)N2C1	1.6

Now let's try a different one.
Memo: CC[C@H](C)[C@@H]1NC(=O)[C@H](CC)N(C)C(=O)C[C@@H](C(=O)N(C)C)N(C)C(=O)[C@H](C2CCCC2)N(C)C(=O)C2(CCC2)NC(=O)[C@@H]2CCCN2C(=O)[C@H](CCc2cc(F)c(C(F)(F)F)c(F)c2)NC(=O)CN(C)C(=O)[C@H](CC2CCCCC2)N2CC/C=C\C[C@@H](C2=O)N(C)C(=O)CN(C)C1=O , reported Kd: 0.55

====

- assayed_system: GDP-bound KRAS wild-type protein (Homo sapiens)
- assay_remarks: Binding to KRAS by surface plasmon resonance (SPR), Single Cycle Kinetics
- measurement_context: SPR Single Cycle Kinetics, GDP-bound KRAS wild-type protein, 1:1 binding model; read-out: KRAS KD
Where a SMILES comes first, the peptide text is derived from it. Bridges are numbered along the chain shown (N, C = ends). [ ]: non-standard residue; d: D form. The star is where a group is joined. hPhe(3,5-F2-4-CF3) = N[C@@H](CCc1cc(F)c(C(F)(F)F)c(F)c1)C(=O)O; hPhe(3-Cl-4-CF3) = N[C@@H](CCc1ccc(C(F)(F)F)c(Cl)c1)C(=O)O; NPrPhe(4-CF3) = CCCN[C@@H](Cc1ccc(C(F)(F)F)cc1)C(=O)O; NPrPhe(4-Me) = CCCN[C@@H](Cc1ccc(C)cc1)C(=O)O; NMeGly(cPent) = CN[C@H](C(=O)O)C1CCCC1; Pro(4,4-F2) = O=C(O)[C@@H]1CC(F)(F)CN1; NMeGly(cBu) = CN[C@H](C(=O)O)C1CCC1; Piperidide(4-Me) = CC1CCN(*)CC1; NMeD = CN[C@@H](CC(=O)O)C(=O)O; NMeL = CN[C@@H](CC(C)C)C(=O)O; Morpholide = C1CN(*)CCO1; Ac5c = NC1(C(=O)O)CCCC1; Aze = O=C(O)[C@@H]1CCN1; Ac4c = NC1(C(=O)O)CCC1; NEtG = CCNCC(=O)O; Sar = CNCC(=O)O
Simple rule here: Kd less than 0.2 nM is 1, otherwise -1.

molecule	category_label
CC[C@H](C)[C@@H]1NC(=O)[C@H](CC(C)C)N(C)C(=O)C[C@@H](C(=O)N(C)C)N(C)C(=O)[C@H](C2CCCC2)N(C)C(=O)C2(CCCC2)NC(=O)[C@@H]2CCCN2C(=O)[C@H](CCc2cc(F)c(C(F)(F)F)c(F)c2)NC(=O)CN(C)C(=O)[C@H](Cc2ccc(C(F)(F)F)cc2)N2CCCC[C@@H](C2=O)N(C)C(=O)CN(C)C1=O	1
CCC[C@H]1C(=O)N[C@@H]([C@@H](C)CC)C(=O)N(C)CC(=O)N(C)[C@H]2C/C=C\CCN(C2=O)[C@@H](Cc2ccc(C)cc2)C(=O)N(C)CC(=O)N[C@@H](CCc2ccc(Cl)c(Cl)c2)C(=O)N2CCCCC[C@H]2C(=O)NC2(CC(C)(C)C2)C(=O)N(C)[C@@H](C(CC)CC)C(=O)N(C)[C@H](C(=O)N(C)C)CC(=O)N1C	-1
CCC[C@H]1C(=O)N[C@@H]([C@@H](C)CC)C(=O)N(C)CC(=O)N(C)[C@H]2C/C=C\CCN(C2=O)[C@@H](Cc2ccc(C(F)(F)F)cc2)C(=O)N(C)CC(=O)N[C@@H](CCc2ccc(C(F)(F)F)c(Cl)c2)C(=O)N2CCOC[C@H]2C(=O)NC2(CC(C)(C)C2)C(=O)N(C)[C@@H](C(CC)CC)C(=O)N(C)[C@H](C(=O)N(C)C)CC(=O)N1C	-1
CC[C@H](C)[C@@H]1NC(=O)[C@H](CC(C)C)N(C)C(=O)C[C@@H](C(=O)N2CCOCC2)N(C)C(=O)[C@H](C2CCCC2)N(C)C(=O)C2(CCCC2)NC(=O)[C@@H]2CC(=O)CN2C(=O)[C@H](CCc2cc(F)c(C(F)(F)F)c(F)c2)NC(=O)CN(C)C(=O)[C@H](Cc2ccc(C(F)(F)F)cc2)N2CCCCC[C@@H](C2=O)N(C)C(=O)CN(C)C1=O	-1
CCCN1C(=O)CN(C)C(=O)CN(C)C(=O)[C@H]([C@@H](C)CC)NC(=O)[C@H](C2CCC2)N(C)C(=O)C[C@@H](C(=O)N2CCOCC2)N(C)C(=O)[C@H](C2CCCC2)N(C)C(=O)C2(CCCC2)NC(=O)[C@@H]2CC(F)(F)CN2C(=O)[C@H](CCc2ccc(C(F)(F)F)c(Cl)c2)NC(=O)CN(C)C(=O)[C@@H]1Cc1ccc(C(F)(F)F)cc1 [PP0200] ([NMeGly(cBu)]I[Sar][Sar][NPrPhe(4-CF3)][Sar][hPhe(3-Cl-4-CF3)][Pro(4,4-F2)][Ac5c][NMeGly(cPent)][NMeD]-Morpholide; lactam N-11)	-1

Data request: Consider the molecule CC[C@H](C)[C@@H]1NC(=O)[C@H](CC(C)C)N(CC)C(=O)C[C@@H](C(=O)N2CCOCC2)N(C)C(=O)[C@H](C2CCCC2)N(C)C(=O)C2(CCCC2)NC(=O)[C@@H]2CCCN2C(=O)[C@H](CCc2cc(F)c(C(F)(F)F)c(F)c2)NC(=O)CN(C)C(=O)[C@H](Cc2ccc(C(F)(F)F)cc2)N2CCCC[C@@H](C2=O)N(C)C(=O)CN(C)C1=O . Is its Kd strictly less than 0.2 nM?
Data returned: 1

Data request: Consider the molecule CCCN1C(=O)CN(C)C(=O)CN(C)C(=O)[C@H]([C@@H](C)CC)NC(=O)[C@H](CC(C)C)N(C)C(=O)C[C@@H](C(=O)N2CCOCC2)N(C)C(=O)[C@H](C2CCCC2)N(C)C(=O)C2(CCC2)NC(=O)[C@@H]2CCCN2C(=O)[C@H](CCc2ccc(C(F)(F)F)c(Cl)c2)NC(=O)CN(C)C(=O)[C@@H]1Cc1ccc(C(F)(F)F)cc1 [PP0197] ([NMeL]I[Sar][Sar][NPrPhe(4-CF3)][Sar][hPhe(3-Cl-4-CF3)]P[Ac4c][NMeGly(cPent)][NMeD]-Morpholide; lactam N-11) . Is its Kd strictly less than 0.2 nM?
Data returned: 1

Data request: Consider the molecule CCCN1C(=O)CN(C)C(=O)CN(C)C(=O)[C@H]([C@@H](C)CC)NC(=O)[C@H](CC(C)C)N(C)C(=O)C[C@@H](C(=O)N2CCOCC2)N(C)C(=O)[C@H](C2CCCC2)N(C)C(=O)C2(CCCC2)NC(=O)[C@@H]2CCCN2C(=O)[C@H](CCc2ccc(C(F)(F)F)c(Cl)c2)NC(=O)CN(CC)C(=O)[C@@H]1Cc1ccc(C)cc1 [PP0066] ([NMeL]I[Sar][Sar][NPrPhe(4-Me)][NEtG][hPhe(3-Cl-4-CF3)]P[Ac5c][NMeGly(cPent)][NMeD]-Morpholide; lactam N-11) . Is its Kd strictly less than 0.2 nM?
Data returned: -1

Data request: Consider the molecule CCCN1C(=O)CN(C)C(=O)CN(C)C(=O)[C@H]([C@@H](C)CC)NC(=O)[C@H](CC(C)C)N(C)C(=O)C[C@@H](C(=O)N2CCC(C)CC2)N(C)C(=O)[C@H](C2CCCC2)N(C)C(=O)C2(CCCC2)NC(=O)[C@@H]2CCCN2C(=O)[C@H](CCc2ccc(C(F)(F)F)c(Cl)c2)NC(=O)CN(C)C(=O)[C@@H]1Cc1ccc(C(F)(F)F)cc1 [PP0176] ([NMeL]I[Sar][Sar][NPrPhe(4-CF3)][Sar][hPhe(3-Cl-4-CF3)]P[Ac5c][NMeGly(cPent)][NMeD]-{Piperidide(4-Me)}; lactam N-11) . Is its Kd strictly less than 0.2 nM?
Data returned: -1

Data request: Consider the molecule CCCN1C(=O)[C@@H]2CCN2C(=O)CN(C)C(=O)[C@H]([C@@H](C)CC)NC(=O)[C@H](CC(C)C)N(C)C(=O)C[C@@H](C(=O)N2CCOCC2)N(C)C(=O)[C@H](C2CCCC2)N(C)C(=O)C2(CCCC2)NC(=O)[C@@H]2CCCN2C(=O)[C@H](CCc2cc(F)c(C(F)(F)F)c(F)c2)NC(=O)CN(C)C(=O)[C@@H]1Cc1ccc(C(F)(F)F)cc1 [PP0789] ([NMeL]I[Sar][Aze][NPrPhe(4-CF3)][Sar][hPhe(3,5-F2-4-CF3)]P[Ac5c][NMeGly(cPent)][NMeD]-Morpholide; lactam N-11) . Is its Kd strictly less than 0.2 nM?
Data returned: 1

src = patent US20240158446A1
